# ASSAYED_SYSTEM: T1, recombinant human IL4Rα-his protein (human, UniProt P24394 26-232, biotinylated in the capture ELISA and the benchmark blocking ELISA)
# T1 construct: also called biotinylated human IL4Rα-his protein
# TEST_DESCRIPTION: SPR Biacore, mAb captured, IL4Rα-his analyte
# Procedure: Briefly, a goat anti-human IgG (GE Healthcare, Cat. No. BR100839, Human Antibody Capture Kit) was covalently attached to a CMS chip (carboxymethylated dextran-coated chip) via the primary amine group using a standard amine coupling kit supplied by Biacore (GE Healthcare, Pittsburgh, PA, USA). […] The association and dissociation curves were fitted according to a 1:1 Langmuir binding model using BIA evaluation software, and the KD, Kₐ, and Kd values were determined. […]
Measured Dissociation (%), listed per entry for reference.

{"BINDER": "huC2C1A1A1-V4 (antibody, human IgG4 S228P, kappa, V domains shown, Humanized IgG4/kappa) VH: EVQLVESGGGLVQPGGSLRLSCAASGFTFSTYGMSWVRQAPGKGLVWVSTINSNGGSTSYPDSVKGRFTISRDNAKNTLYLQMNSLRAEDTAVYYCARFFRFRNAMDYWGQGTLVTVSS VL: DIQMTQSPSSLSASVGDRVTITCRTSENIYSYLAWYQQKPGKAPKFLIYNAKTLAEGVPSRFSGSGSGTDFTLTISSLQPEDFATYYCQHYYGPPTWTFGQGTKVEIKR", "UNITS_LABEL": "%", "Dissociation (%)": 0.2}
{"BINDER": "huC2C1A1A1-V14 (antibody, human IgG4 S228P, kappa, V domains shown, Humanized IgG4/kappa) VH: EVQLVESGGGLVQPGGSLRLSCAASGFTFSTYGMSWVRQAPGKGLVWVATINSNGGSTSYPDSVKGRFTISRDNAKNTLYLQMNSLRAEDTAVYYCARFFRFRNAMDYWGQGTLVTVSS VL: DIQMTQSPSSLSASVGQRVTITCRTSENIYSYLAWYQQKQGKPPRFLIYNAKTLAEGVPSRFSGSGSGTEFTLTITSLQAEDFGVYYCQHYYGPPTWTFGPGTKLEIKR", "UNITS_LABEL": "%", "Dissociation (%)": 0.8}
{"BINDER": "huC2C1A1A1-V6 (antibody, human IgG4 S228P, kappa, V domains shown, Humanized IgG4/kappa) VH: EVQLVESGGGLVQPGGSLRLSCAASGFTFSTYGMSWVRQSPDKRLEWVSTINSNGGSTSYPDSVKGRFTISRDNAKNTLYLQMRSLRAEDTAVYYCARFFRFRNAMDYWGQGTLVTVSS VL: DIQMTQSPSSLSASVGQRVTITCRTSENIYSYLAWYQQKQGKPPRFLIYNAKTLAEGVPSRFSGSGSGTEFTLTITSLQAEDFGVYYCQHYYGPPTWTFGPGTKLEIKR", "UNITS_LABEL": "%", "Dissociation (%)": -0.59}
{"BINDER": "huC2C1A1A1-V10 (antibody, human IgG4 S228P, kappa, V domains shown, Humanized IgG4/kappa) VH: EVQLVESGGGLVQPGGSLRLSCAASGFTFSTYGMSWVRQAPGKGLVLVATINSNGGSTSYPDSVKGRFTISRDNAKNTLYLQMNSLRAEDTAVYYCARFFRFRNAMDYWGQGTLVTVSS VL: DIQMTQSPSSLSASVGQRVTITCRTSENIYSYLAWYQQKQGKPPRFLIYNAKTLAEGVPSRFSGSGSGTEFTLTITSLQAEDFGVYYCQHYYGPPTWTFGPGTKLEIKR", "UNITS_LABEL": "%", "Dissociation (%)": -1.54}
{"BINDER": "huC2C1A1A1-V2 (antibody, human IgG4 S228P, kappa, V domains shown, Humanized IgG4/kappa) VH: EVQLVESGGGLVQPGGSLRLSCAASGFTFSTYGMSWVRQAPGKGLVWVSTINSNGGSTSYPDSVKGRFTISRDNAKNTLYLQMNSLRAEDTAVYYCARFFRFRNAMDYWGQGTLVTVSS VL: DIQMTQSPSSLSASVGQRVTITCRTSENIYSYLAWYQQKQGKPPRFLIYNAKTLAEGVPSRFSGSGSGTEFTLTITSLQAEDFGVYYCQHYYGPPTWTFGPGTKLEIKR", "UNITS_LABEL": "%", "Dissociation (%)": -0.2}

Origin of measurements: patent US20240343815A1
